Details: buffer; pH 7.4; 200.0 µM
Answer each item with its documented solubility kinetic.
One number for each entry, in µg/mL.

>>> numeric_readout("O=C1Nc2ccccc2/C1=C\\C(=O)c1ccccc1")
5.1
>>> numeric_readout("CC(=O)Nc1ccc(C(=O)COC(=O)C2CCCCC2)c(F)c1")
10.7
>>> numeric_readout("Cc1cnc(NC(=O)c2sc(Nc3ccccc3)nc2N)o1")
6.4
>>> numeric_readout("O=C1OCC(c2ccc(Cl)s2)=C1c1ccccc1[N+](=O)[O-]")
22.3

Turning now to a further record.
Recorded solubility kinetic for Cc1cccc(NC(=O)c2cc(-c3ccccn3)nc3ccccc23)c1C , please?
3.5

###

Details: buffer; pH 7.4; 200.0 µM
Assign class by solubility kinetic: not lower than 10 µg/mL means Fulfilled; lower than 10 µg/mL means Not fulfilled.

State whether the measured solubility kinetic reaches 10 µg/mL, counting equality as reaching it, for Cc1ccc(NC(=O)c2ccc3c(c2)OCCO3)nc1
Fulfilled

State whether the measured solubility kinetic reaches 10 µg/mL, counting equality as reaching it, for Cc1c(C(=O)C(=O)N2CCN(C)CC2)c2ccccc2n1C
Fulfilled

State whether the measured solubility kinetic reaches 10 µg/mL, counting equality as reaching it, for COc1ccccc1-c1c(C)nn2c(N3CCOCC3)cc(C)nc12
Fulfilled

###

Details: buffer; pH 7.4; 200.0 µM
Answer each item with its documented solubility kinetic.

>>> result("O=C(Oc1ccccc1)N1CCN(C(=O)c2ccco2)CC1")
"> 45 µg/mL"

// each listed compound needs a value for solubility kinetic
1. CCCOc1ccc(N/C=C/C(=O)c2ccc(OC)c(OC)c2)cc1
2. Cc1cc(=O)[nH]c(Nc2ccc(Cl)cc2)n1

1. < 0.7 µg/mL
2. > 35.4 µg/mL

###

Details: buffer; pH 7.4; 200.0 µM
measure: solubility kinetic

>>> result("O=Cc1ccc(Oc2ncccn2)cc1")
"> 30 µg/mL"
>>> result("O=C(O)/C=C/C(=O)N1CCN(C(c2ccccc2)c2ccccc2)CC1")
"> 52.6 µg/mL"

// each listed compound needs a value for solubility kinetic
1. O=C(NNC1CC(=O)N(c2ccc(Cl)cc2)C1=O)c1ccco1 (centres undefined)
2. CCOc1ccc(Nc2nc(NCc3ccco3)nc(N)c2[N+](=O)[O-])cc1
3. Nc1cc[n+](CC(=O)c2ccccc2)cc1.[Br-]

1. > 50.1 µg/mL
2. < 0.1 µg/mL
3. > 44 µg/mL

// each listed compound needs a value for solubility kinetic
1. CCOc1ccccc1C(=O)OCC(=O)NCC1CCCCC1
2. O=C(Nc1cccc(NC(=O)c2cccs2)c1)c1cccnc1
3. CC(C)C(=O)Nc1ccc(NC(=O)c2ccc3c(c2)OCO3)cc1

1: > 47.9 µg/mL; 2: > 48.5 µg/mL; 3: < 0.3 µg/mL

Recorded solubility kinetic for CCN(CC)c1cc(C)c2cc(NC(=O)c3cccs3)ccc2n1 , please?
< 0.2 µg/mL

###

Answer each item with its documented log10 solubility kinetic.
Details: buffer; pH 7.4; 200.0 µM
Base-10 log of solubility kinetic, unit µg/mL.

>>> numeric_readout("Cc1cnc(NC(=O)c2cccs2)s1")
1.45
>>> numeric_readout("CCOC(=O)Cn1c2ccc(C)cc2c2nc(C)sc21")
1.58
>>> numeric_readout("CCOC(=O)C1=C(C)N(C)C(C)=C(C(=O)OCC)C1c1ccsc1")
0.30

// each listed compound needs a value for log10 solubility kinetic
1. CCN(CC)C(=O)c1cc(Cl)ccn1
2. COc1ccccc1NC(=O)c1cc(N)cc(C(=O)Nc2ccccc2OC)c1
3. CC(=O)C(C)n1cnc2scc(-c3ccc(C)cc3)c2c1=O (stereo not drawn)
4. CN(C)CCN1CC(O)=C(c2nc3ccccc3s2)C1=N

[1.43, 1.47, 1.65, 1.50]

Source listed as PubChem BioAssay AID1996.
